study.system: Prothrombin (Bos taurus, UniProt P00735)
assay.summary: thrombin protease inhibitors – biochemical, fluorescence polarization, uHTS hits, dose response (AID 602369)
Assay type: functional
The source made the active and inactive calls.
Just give me one of these, please: True = active, False = inactive

CC(C)n1ncc2c(C(=O)Nc3ccc(S(N)(=O)=O)cc3)cc(C3CC3)nc21; True
N#C/C(=C\c1ccc(O)c(O)c1)C(=O)Nc1ccccc1; True
O=[N+]([O-])c1ccc(Sc2cccc3cccnc23)c([N+](=O)[O-])c1; False

Now take the following compound into account.
Answer briefly: the call reported for Cc1ccc(CO/N=C\Cc2snc(Sc3ncc(C(F)(F)F)cc3Cl)c2C#N)cc1 in this assay.
True

----------
assay.summary: Luminescence Cell-Based Dose Retest to Confirm Inhibitors of Cancer Stem Cells. [Related pubchem assays (depositor defined):AID2717, AID2721]
Type: functional
applied.conditions: Homo sapiens
The source made the active and inactive calls.
Write down the outcome that applies. Available outcomes: active, inactive

Known results for compounds:
Cc1ccc(N/N=C/c2cccnc2)cc1; active
Cn1c(C(=O)N2CCCC(C(=O)NCCCSC3CCCCC3)C2)cc2sccc21 (centres undefined); active
Cc1ccc(P(=S)(c2ccc(C)o2)N2CCOCC2)o1; inactive

Now look at this one.
Assay outcome for COC(=O)Nc1nc2cc(-c3nnc(O)c4ccccc34)ccc2[nH]1 : what was it?
active

----------
study.system: FAD-linked sulfhydryl oxidase ALR (Homo sapiens)
Sequence (P55789 whole entry): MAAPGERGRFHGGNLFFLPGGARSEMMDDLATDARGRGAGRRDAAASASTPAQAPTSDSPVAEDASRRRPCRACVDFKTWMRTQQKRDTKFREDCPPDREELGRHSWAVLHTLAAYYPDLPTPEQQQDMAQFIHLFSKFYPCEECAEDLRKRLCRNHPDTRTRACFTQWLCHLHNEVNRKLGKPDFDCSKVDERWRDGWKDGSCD
assay.summary: ALR-catalysed DTT oxidation blockers – biochemical, H2O2 detection, luminescence, cherry-pick, dose response (AID 493248)
The source made the active and inactive calls.
Exercise: state measured AC50 for each of the compounds provided.

See these solved cases before continuing.
Cc1nn(-c2ccccc2)c(C)c1/C=N/n1c(S)nnc1-c1ccccc1Br; 3440 nM (active)
Cc1occc1C(=O)NCCCCc1ccccc1; 488 nM (active)

Consider the record given below.
Can you look up the measured AC50 of Cc1ccc(Sc2c([N+](=O)[O-])ncn2C)cc1 for me?
270 nM (active)

----------
Kindly supply the reported AC50 values for the records listed here.
study.system: Cytochrome P450 2C19 (Homo sapiens)
Sequence (P33261 whole entry): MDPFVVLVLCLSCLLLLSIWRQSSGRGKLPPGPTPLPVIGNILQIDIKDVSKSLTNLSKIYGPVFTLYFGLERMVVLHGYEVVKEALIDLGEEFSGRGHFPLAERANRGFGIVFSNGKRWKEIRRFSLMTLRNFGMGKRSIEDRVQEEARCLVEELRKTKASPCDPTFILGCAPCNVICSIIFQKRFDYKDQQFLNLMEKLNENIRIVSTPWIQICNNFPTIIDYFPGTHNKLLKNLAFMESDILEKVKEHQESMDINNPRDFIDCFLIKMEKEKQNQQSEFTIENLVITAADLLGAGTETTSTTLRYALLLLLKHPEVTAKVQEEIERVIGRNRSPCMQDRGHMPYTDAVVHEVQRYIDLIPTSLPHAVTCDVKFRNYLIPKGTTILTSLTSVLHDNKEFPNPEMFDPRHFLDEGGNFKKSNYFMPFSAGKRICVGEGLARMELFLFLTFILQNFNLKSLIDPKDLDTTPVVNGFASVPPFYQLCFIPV
assay.summary: Cytochrome panel assay with activity outcomes. Panel member name: p450-cyp2c19 Compounds with AC50 equal or less than 10 uM are considered active
Assay type: functional
applied.conditions: read-out: AC50
Peptide text beside a SMILES is read from it.

CC1(C)CC2(CC(C)(C(=O)CSc3nc4ccccc4s3)OC2=O)C(=O)O1 (stereo unspecified); 8.91 µM (inconclusive)
CCc1ccc(NC(=S)N2CCN(c3cccc(C(F)(F)F)c3)CC2)cc1; 4.47 µM (inconclusive)
O=C(Cn1ccc([N+](=O)[O-])n1)NCc1cccs1; 14.1 µM (inconclusive)

Here are 6 compounds. What values of AC50 were reported for them?
1. COC(=O)Cn1nc(-c2ccccc2)n(-c2ccccc2)c1=S
2. O=C(c1cc(-c2ccccc2Cl)on1)N1CCN(C(=O)c2ccco2)CC1
3. CCCCOc1ccc(-c2nnn(CC(=O)c3c[nH]c4ccccc34)n2)cc1
4. CC(NC(=O)CCSc1nc(-c2ccc3c(c2)OCO3)cc(C(F)(F)F)n1)c1ccccc1 (stereo unspecified)
5. CCn1c(=O)c2c(=O)cc(O)oc2c2ccccc21
6. COc1cccc(C(CC(=O)Nc2cccc3ccccc23)NC(=O)c2ccccc2)c1 (stereo unspecified)

["20 µM (inconclusive)", "25.1 µM (inconclusive)", "25.1 µM (inconclusive)", "0.398 µM (inconclusive)", "3.55 µM (inconclusive)", "0.631 µM (inconclusive)"]

Provide reported AC50 for each item, in the same order as listed.
1. CCc1c2c(nc3cccc(OC)c13)OC(CC)C2 (stereo unspecified)
2. Cc1c2c(nc3c(C(=O)NC4CCCC4)cnn13)CCCC2
3. O=C(c1c[nH]c(=O)n(-c2ccccc2)c1=O)N1CCc2ccccc21

1: 20 µM (inconclusive); 2: 39.8 µM (inconclusive); 3: 6.31 µM (inconclusive)

Please state AC50 for every compound in the list that follows.
1. COC(=O)[C@@]1(Cc2ccc(OC)cc2)[C@H]2c3cc(C(=O)N(C)C)n(C[C@H](O)CO)c3C[C@H]2CN1C(=O)c1ccccc1
2. COC(=O)c1ccc(C#CC(NP(=O)(c2ccccc2)c2ccccc2)c2ccccc2)cc1 (stereo unspecified)
3. COC(=O)c1c(-c2ccccc2)csc1NC(=O)CSc1ncnc2sc(C)c(C)c12

1. 31.6 µM (inconclusive)
2. 20 µM (inconclusive)
3. 1 µM (inconclusive)

Lab note: each compound below needs its AC50 filled in.
1. Brc1ccc2cccnc2c1
2. CCCOc1ccc(C2C(=O)N(C3CCCCC3)CC(=O)N2C2CC2)cc1OC (stereo unspecified)
3. COC(=O)C(CC(C)C)NC(=O)C(N)Cc1ccccc1 (stereo not drawn) (H-Phe-Leu-OMe; configuration not given here)
4. Cc1cccc(NC2=NN=C(c3ccc4c(c3)OCCO4)CS2)c1
5. CCc1ccc(C(=O)COC(=O)C(Cc2ccccc2)NC(=O)C2CCC(C)CC2)cc1 (stereo unspecified)
6. CC(=O)Nc1ccc(-c2cc(-c3ccc(NC(C)=O)cc3)nc(-c3ccccc3)n2)cc1

1: 0.316 µM (inconclusive); 2: 39.8 µM (inconclusive); 3: 17.8 µM (inconclusive); 4: 5.01 µM (inconclusive); 5: 0.0708 µM (inconclusive); 6: 1.78 µM (inconclusive)

These data points were gathered from ChEMBL document CHEMBL1201862.
